# assay overview: UV-VIS screening of binding and demetallation of Ni(II)-protoporphyrin (IX)
# Format: biochemical
# conditions used: purified protein, 50 μM porphyrin, 24 hrs, room temperature
measured metric: reduction of Ni(II)-protoporphyrin (IX) Soret band (specific demetallation) (%)
Could you give me the number in %? Just the number is fine.

Briefly, reduction of Ni(II)-protoporphyrin (IX) Soret band (specific demetallation) measured for E. coli HypB: nickel chaperone HypB from E. coli, SEQ ID NO 2 (protein, listed as Escherichia coli) MCTTCGCGEGNLYIEGDEHNPHSAFRSAPFAPAARPKMKITGIKAPEFTPSQTEEGDLHYGHGEAGTHAPGMSQRRMLEVEIDVLDKNNRLAERNRARFAARKQLVLNLVSSPGSGKTTLLTETLMRLKDSVPCAVIEGDQQTVNDAARIRATGTPAIQVNTGKGCHLDAQMIADAAPRLPLDDNGILFIENVGNLVCPASFDLGEKHKVAVLSVTEGEDKPLKYPHMFAAASLMLLNKVDLLPYLNFDVEKCIACAREVNPEIEIILISATSGEGMDQWLNWLETQRCA : 83

Every entry's value here was drawn from patent US20190177400A1.
